Data provenance: ChEMBL document CHEMBL2062435

So I've got a bunch of molecules here, and I need their MIC values.
Test system: Enterococcus faecium
assay-protocol: Antimicrobial activity against Enterococcus faecium 10-5 after 18-24 hrs by two-fold serial dilution method
Assay type: functional
Numeric answer only, unit µg/mL assumed.

Entry under test: COc1cc(CO/N=C2\CN(c3nc4c(cc3F)c(=O)c(C(=O)O)cn4C3CC3)CC2CN)ccc1OCc1ccccc1.CS(=O)(=O)O (racemic) . Its MIC was 16

Entry under test: CS(=O)(=O)O.NCC1CN(c2nc3c(cc2F)c(=O)c(C(=O)O)cn3C2CC2)C/C1=N\OCc1ccccc1 (racemic) . Its MIC was 4

Entry under test: COc1cc(F)c(CO/N=C2\CN(c3nc4c(cc3F)c(=O)c(C(=O)O)cn4C3CC3)CC2CN)cc1OC.CS(=O)(=O)O (racemic) . Its MIC was 4

Entry under test: CS(=O)(=O)O.NCC1CN(c2nc3c(cc2F)c(=O)c(C(=O)O)cn3C2CC2)C/C1=N\OCc1cc2c(cc1[N+](=O)[O-])OCO2 (racemic) . Its MIC was 16
